Test: Growth inhibition of HPEN cells at 2 uM after 3 days
Assay type: cell-based
Conditions: human
Quick reference: inhibition at 72 h, 2 µM of the listed items.
REPORTED_PROPERTY: inhibition at 72 h, 2 µM (%)

MOLECULAR_STRING: CSC(=O)C#CC(C)(C)N(C)C
MEASURED_RESULT: 6
--
MOLECULAR_STRING: CSC(=O)C#CC(C)(C)N1CCOCC1
MEASURED_RESULT: 3

----------
Quick reference: IC50 of the listed items.
Experiment: Growth inhibition of HPEN cells administered after 3 days
Type: cell-based
Conditions: Homo sapiens, 72 h
REPORTED_PROPERTY: IC50 (µM)

MOLECULAR_STRING: CSC(=O)C#CC(C)(C)N1CCOCC1
COMPARISON_OPERATOR: >
MEASURED_RESULT: 10
--
MOLECULAR_STRING: CSC(=O)C#CC(C)(C)N(C)Cc1ccccc1
COMPARISON_OPERATOR: =
MEASURED_RESULT: 1.9
--
MOLECULAR_STRING: CSC(=O)C#CC(C)(C)[N+](C)(C)C
COMPARISON_OPERATOR: =
MEASURED_RESULT: 590
--
MOLECULAR_STRING: CSC(=O)C#CC(C)(C)N(C)C
COMPARISON_OPERATOR: =
MEASURED_RESULT: 9.7
